Values from patent US8288394B2

Assay: Particle size distribution, laser diffraction (Malvern Mastersizer S, wet)
Type: physicochemical
Conditions: by volume, mean of six
QUANTITY: Particle Size Distribution D90

| MOLECULE | TEST_RESULT |
| --- | --- |
| C[C@@H](c1ncncc1F)[C@](O)(Cn1cncn1)c1ccc(F)cc1F [Example 2, voriconazole] | 102.8 μm |
| C[C@@H](c1ncncc1F)[C@](O)(Cn1cncn1)c1ccc(F)cc1F [Example 4, voriconazole] | 64.0 μm |
| C[C@@H](c1ncncc1F)[C@](O)(Cn1cncn1)c1ccc(F)cc1F [Example 5, voriconazole] | 92.7 μm |
| C[C@@H](c1ncncc1F)[C@](O)(Cn1cncn1)c1ccc(F)cc1F [Example 8, voriconazole] | 29.9 μm |

---

Assay: Particle size distribution, laser diffraction (Malvern Mastersizer S, wet)
Assay type: physicochemical
Conditions: by volume, mean of six
QUANTITY: Particle Size Distribution D90 (μm)

| MOLECULE | TEST_RESULT |
| --- | --- |
| C[C@@H](c1ncncc1F)[C@](O)(Cn1cncn1)c1ccc(F)cc1F [Example 7, voriconazole] | 57.4 |
| C[C@@H](c1ncncc1F)[C@](O)(Cn1cncn1)c1ccc(F)cc1F [Example 6, voriconazole] | 92.3 |
| C[C@@H](c1ncncc1F)[C@](O)(Cn1cncn1)c1ccc(F)cc1F [Example 3, voriconazole] | 56.2 |

---

Measured Density (experimental particle density ρ) accompanies every entry in the list below.
Test: Particle density by pycnometry
Assay type: physicochemical
Conditions: pycnometry at 25° C., n-heptane, mean of three
QUANTITY: Density (experimental particle density ρ) (g/mL)

| COMPOUND | TEST_RESULT |
| --- | --- |
| C[C@@H](c1ncncc1F)[C@](O)(Cn1cncn1)c1ccc(F)cc1F [Example 5, voriconazole] | 1.37 |
| C[C@@H](c1ncncc1F)[C@](O)(Cn1cncn1)c1ccc(F)cc1F [Example 3, voriconazole] | 1.33 |
| C[C@@H](c1ncncc1F)[C@](O)(Cn1cncn1)c1ccc(F)cc1F [Example 2, voriconazole] | 1.35 |
| C[C@@H](c1ncncc1F)[C@](O)(Cn1cncn1)c1ccc(F)cc1F [Example 6, voriconazole] | 1.40 |
| C[C@@H](c1ncncc1F)[C@](O)(Cn1cncn1)c1ccc(F)cc1F [Example 4, voriconazole] | 1.32 |
| C[C@@H](c1ncncc1F)[C@](O)(Cn1cncn1)c1ccc(F)cc1F [Comparative Example 2, voriconazole, reference compound] | 1.40 |

---

Assay: Sphericity factor calculated from density, Sauter diameter and specific surface area
Assay type: physicochemical
Settings: calculated using the reported crystal density value

| COMPOUND | sphericity factor Ψw |
| --- | --- |
| C[C@@H](c1ncncc1F)[C@](O)(Cn1cncn1)c1ccc(F)cc1F [Example 5, voriconazole] | 0.23 |
| C[C@@H](c1ncncc1F)[C@](O)(Cn1cncn1)c1ccc(F)cc1F [Example 4, voriconazole] | 0.31 |
| C[C@@H](c1ncncc1F)[C@](O)(Cn1cncn1)c1ccc(F)cc1F [Example 6, voriconazole] | 0.23 |
| C[C@@H](c1ncncc1F)[C@](O)(Cn1cncn1)c1ccc(F)cc1F [Example 2, voriconazole] | 0.29 |
| C[C@@H](c1ncncc1F)[C@](O)(Cn1cncn1)c1ccc(F)cc1F [Example 7, voriconazole] | 0.26 |
| C[C@@H](c1ncncc1F)[C@](O)(Cn1cncn1)c1ccc(F)cc1F [Example 3, voriconazole] | 0.31 |
| C[C@@H](c1ncncc1F)[C@](O)(Cn1cncn1)c1ccc(F)cc1F [Example 8, voriconazole] | 0.50 |
